Target: T1, 6xHis-SUMO-SIRT2 (human SIRT2 catalytic domain, amino acids 34-356, with N-terminal 6xHis-SUMO tag) (human, UniProt Q8IXJ6 34-356)
T1 construct: human SIRT2 catalytic domain, amino acids 34-356; Used in the HTRF assays; held near the FRET donor by a terbium cryptate-labeled anti-6xHis antibody (a tool); also called His tagged-SIRT2; sirtuin-2; not shown: His6, N-terminal, kept; SUMO, N-terminal, kept
T1 sequence (looked up): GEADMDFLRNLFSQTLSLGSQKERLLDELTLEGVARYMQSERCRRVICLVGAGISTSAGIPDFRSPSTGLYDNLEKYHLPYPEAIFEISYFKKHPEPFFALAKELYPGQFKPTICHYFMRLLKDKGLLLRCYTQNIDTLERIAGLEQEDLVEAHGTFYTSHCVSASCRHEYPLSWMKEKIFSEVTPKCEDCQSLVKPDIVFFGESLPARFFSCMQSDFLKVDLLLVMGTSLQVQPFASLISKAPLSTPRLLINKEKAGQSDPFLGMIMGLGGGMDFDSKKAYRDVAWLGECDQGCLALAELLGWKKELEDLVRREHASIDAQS
Assay: AlphaScreen or HTRF; direct binding; 6xHis-SUMO-SIRT2 and FAM-myristoyl-H4K16 peptide 0-10 nM each, 0.2 nM anti-6xHis terbium cryptate-labeled antibody as FRET donor; 384-well plates, room temperature, 10 mM Hepes-NaOH pH 7.4, 150 mM NaCl, 5 mM DTT, 0.005% Tween-20; apparent Kd
Conditions: both partners purified
pKd: −log10 of the molar value. Primed or numbered codes have the meaning given here. Ends that are not written are not given here. * marks the point of attachment. Myristoyl = CCCCCCCCCCCCCC(=O)*; PEG4′ = PEG4 linker; FAM = fluorescein
property: pKd

{FAM-PEG4′}-KGLGKGGAK(Myristoyl)RHRK : ~9.00

Source of measurements: paper PMC11195995
